Tested on: H. influenzae HI-3542
Assay: Antibacterial assay (Test A), standard microtitration, MIC
Assay type: cell-based
Settings: Haemophilus influenzae, HI3542; Gram Negative Bacteria; strain HI-3542; read-out: Minimum Inhibitory Concentrations H. influenzae HI-3542
// values below are reported MIC
The figure you give is taken to be in µg/mL; do not add the unit.

// known answers, use as guide
{"compound": "Nc1nc(-n2c(=O)n(N)c(=O)c3cc(F)c(N4CC(O)C4)c(Cl)c32)c(F)cc1F [drawing 117]", "MIC, µg/mL": 1}
{"compound": "CC(C)C1(O)CN(c2c(F)cc3c(=O)n(N)c(=O)n(C4CC4)c3c2Cl)C1 [drawing 122]", "MIC, µg/mL": 32}

Lab note: measured MIC of Cc1c(N2CC(CCO)C2)c(F)cc2c(=O)n(N)c(=O)n(C3CC3)c12 [drawing 119] was 4

Value of measured MIC for the entry Nn1c(=O)c2cc(F)c(N3CC(O)(c4ccc(F)cc4)C3)c(Cl)c2n(C2CC2)c1=O [drawing 121] : 32

Query Nn1c(=O)c2cc(F)c(N3CC(O)(C4CC4)C3)c(Cl)c2n(C2CC2)c1=O [drawing 120] yields MIC of 0.03

Data point: Cc1c(N2CC(O)C2)c(F)cc2c(=O)n(N)c(=O)n(C3CC3)c12 [drawing 118] ; MIC = 32
